Below, each entry is listed with its recorded IC50.
target: Phosphodiesterase 4 (Rattus norvegicus, UniProt P14270+P14646+P14644+P54748); test: Inhibition of calcium-independent Phosphodiesterase 4; type: protein assay

{"Molecule": "COc1ccc(C2CNC(=O)N2C)cc1OC1CC2CCC(C2)C1 (centres undefined)", "Test target": "Phosphodiesterase 4 (Rattus norvegicus, UniProt P14270+P14646+P14644+P54748)", "IC50 [nM]": 2400}
{"Molecule": "COc1ccc(C2CNC(=O)N2C)cc1OC1CC2CCC1CC2 (centres undefined)", "Test target": "Phosphodiesterase 4 (Rattus norvegicus, UniProt P14270+P14646+P14644+P54748)", "IC50 [nM]": 2500}
{"Molecule": "COc1ccc(C2CNC(=O)N2C)cc1O[C@@H]1CC2CCC1C2 (some centres undefined)", "Test target": "Phosphodiesterase 4 (Rattus norvegicus, UniProt P14270+P14646+P14644+P54748)", "IC50 [nM]": 220}
{"Molecule": "COc1ccc(C2CNC(=O)N2C)cc1OC1CC2C3CCC(C3)C12 (centres undefined)", "Test target": "Phosphodiesterase 4 (Rattus norvegicus, UniProt P14270+P14646+P14644+P54748)", "IC50 [nM]": 3100}
{"Molecule": "COc1ccc(C2CNC(=O)N2C)cc1O[C@@H]1CC2CC1C1CCCC21 (some centres undefined)", "Test target": "Phosphodiesterase 4 (Rattus norvegicus, UniProt P14270+P14646+P14644+P54748)", "IC50 [nM]": 490}
{"Molecule": "COc1ccc(C2CNC(=O)N2C)cc1O[C@@H]1CC2CC1c1ccccc12 (some centres undefined)", "Test target": "Phosphodiesterase 4 (Rattus norvegicus, UniProt P14270+P14646+P14644+P54748)", "IC50 [nM]": 290}
{"Molecule": "COc1ccc(C2CNC(=O)N2C)cc1OC1CC2C=CC1C2 (centres undefined)", "Test target": "Phosphodiesterase 4 (Rattus norvegicus, UniProt P14270+P14646+P14644+P54748)", "IC50 [nM]": 130}
{"Molecule": "COc1ccc(C2CNC(=O)N2C)cc1OC1C2CC3CC(C2)CC1C3 (centres undefined)", "Test target": "Phosphodiesterase 4 (Rattus norvegicus, UniProt P14270+P14646+P14644+P54748)", "IC50 [nM]": 11000}
{"Molecule": "COc1ccc(C2CNC(=O)N2C)cc1OC1CC2C3CCC(C3)C2C1 (centres undefined)", "Test target": "Phosphodiesterase 4 (Rattus norvegicus, UniProt P14270+P14646+P14644+P54748)", "IC50 [nM]": 1400}

###

molecular target: Phosphodiesterase 4 (Rattus norvegicus, UniProt P14270+P14646+P14644+P54748); experiment: Inhibition of [3H]- rolipram binding to rat cerebral cortex membranes; type: cell membranes, Membrane
Value type: IC50

{"Molecule": "COc1ccc(C2CNC(=O)N2C)cc1OC1CC2CCC(C2)C1 (stereo not drawn)", "Value type": "IC50", "Observed result": "> 100 nM"}
{"Molecule": "COc1ccc(C2CNC(=O)N2C)cc1OC1CC2C3CCC(C3)C2C1 (stereo not drawn)", "Value type": "IC50", "Observed result": "> 100 nM"}
{"Molecule": "COc1ccc(C2CNC(=O)N2C)cc1O[C@@H]1CC2CC1c1ccccc12 (stereo partly drawn)", "Value type": "IC50", "Observed result": "21 nM"}

###

molecular target: Phosphodiesterase 4 (Rattus norvegicus, UniProt P14270+P14646+P14644+P54748); experiment: Inhibition of [3H]- rolipram binding to rat cerebral cortex membranes; assay type: cell membranes, Membrane

{"Compound": "COc1ccc(C2CNC(=O)N2C)cc1OC1CC2CCC1CC2 (stereo unspecified)", "Inequality operator": "=", "IC50 [nM]": 81}
{"Compound": "COc1ccc(C2CNC(=O)N2C)cc1O[C@@H]1CC2CC1C1CCCC21 (stereo partly specified)", "Inequality operator": "=", "IC50 [nM]": 10}
{"Compound": "COc1ccc(C2CNC(=O)N2C)cc1OC1C2CC3CC(C2)CC1C3 (stereo unspecified)", "Inequality operator": ">", "IC50 [nM]": 100}
{"Compound": "COc1ccc(C2CNC(=O)N2C)cc1OC1CC2C=CC1C2 (stereo unspecified)", "Inequality operator": "=", "IC50 [nM]": 3.1}
{"Compound": "COc1ccc(C2CNC(=O)N2C)cc1O[C@@H]1CC2CCC1C2 (stereo partly specified)", "Inequality operator": "=", "IC50 [nM]": 2.6}
{"Compound": "COc1ccc(C2CNC(=O)N2C)cc1OC1CC2C3CCC(C3)C12 (stereo unspecified)", "Inequality operator": "=", "IC50 [nM]": 100}
